test system: HCC-2998 colon; experiment: NCI-60 one-dose screen, 48 h (100 = growth as untreated, 0 = no growth, -100 = all killed); details: 10 µM unless noted
About 83,000 compounds went through this panel and 20% of them were active in at least one assay; those are over-represented in the sample as a whole.
observation type: growth (%)
Give a bare numeral; the unit % is implied.

COc1ccc(OC)c(C2C(C#N)=C(N)Oc3cc(O)ccc32)c1 (stereo unspecified)    109
NC(=O)c1cc(Cl)ccc1NC(=O)COc1ccccc1    83.1
O=C1CN2CCC1C/C2=C\c1ccnc2c(Cl)cccc12 (stereo unspecified)    102
CCCN(CCC)c1ccc(/C=C/c2ccc3cc(OCC)ccc3n2)cc1    94.4
CN(C)c1ccc(/C=C(\C#N)c2cc3ccccc3n2C)cc1    20.1

// next item, growth requested
query: Please list growth recorded for the compound C=CC[P+](c1ccccc1)(c1ccccc1)c1ccccc1
result: 51.7

====

tested on: LOX IMVI melanoma; experiment: NCI-60 one-dose screen, 48 h (100 = growth as untreated, 0 = no growth, -100 = all killed); details: 10 µM unless noted
About 83,000 compounds went through this panel and 20% of them were active in at least one assay; those are over-represented in the sample as a whole.
We use 90% as the dividing line for growth: on or above the line is True, below is False.

COc1ccc(/C=C2\Oc3cc(C)c(Cl)cc3C2=O)cc1OC    True
COc1ccc(Sc2ccc3[nH]c(=O)nc(N)c3c2)cc1    True
COc1ccc(CSc2nc3cc(OC)c(OC)cc3c(=O)n2-c2ccc(Cl)cc2)cc1    True
Cc1ccc(S(=O)(=O)N2CCc3ccc(O)c4c3C2Cc2ccc3c(c2-4)OCO3)cc1 (stereo unspecified)    False
Cc1nn(-c2ccccc2)c2nc3nc4c(c(N)c3c(-c3ccc(Cl)cc3)c12)CCC4    False
COc1ccc(-n2c(SCc3cc(OC)c(OC)c(OC)c3)nc3ccc(C)cc3c2=O)c(OC)c1    False
NC(=O)c1cc(I)ccc1NC(=O)COc1ccccc1    False
Nc1ccccc1-c1n[nH]c(=O)[nH]c1=O    True

query: # check: growth of Cl.Fc1c[c-]c(-c2ccccn2)c(F)c1.[Pt].c1ccc([PH+](CC[PH+](c2ccccc2)c2ccccc2)c2ccccc2)cc1 is greater than or equal to 90%
result: False

query: # check: growth of ONc1nc(NO)c2[nH]cnc2n1 is greater than or equal to 90%
result: False

query: # check: growth of COc1ccc(-n2ncc3c4nc(OC)c(S(=O)(=O)c5ccccc5)cc4ccc32)cc1 is greater than or equal to 90%
result: False

query: # check: growth of COc1cc(OCc2cccc(-c3ccc(C(O)c4nccs4)cc3)c2C)cc(OC)c1C=O (stereo unspecified) is greater than or equal to 90%
result: False

query: # check: growth of COc1ccc(/C=C(\C#N)c2cc3ccccc3n2C)cc1 is greater than or equal to 90%
result: False

====

Catalogue of molecules with associated growth
test system: DU-145 prostate; assay: NCI-60 one-dose screen, 48 h (100 = growth as untreated, 0 = no growth, -100 = all killed); settings: 10 µM unless noted
The panel holds about 83,000 compounds, 20% with a hit somewhere; the sample as a whole holds those more often.
Give a bare numeral; the unit % is implied.

query: Please list growth recorded for the molecule Nc1nc2c(s1)CCc1c-2c(Br)n(Cc2ccccc2)c1Br
result: 109

query: Please list growth recorded for the molecule O=C1/C(=C/c2ccccc2F)CNC/C1=C\c1ccccc1F
result: -11.6

query: Please list growth recorded for the molecule O=C(N/N=C(\CS(=O)(=O)c1ccccc1)c1cc2ccccc2oc1=O)c1ccccc1
result: 111

query: Please list growth recorded for the molecule NC1=NC(c2ccccc2OS(=O)(=O)c2ccc(Br)cc2)n2c(nc3ccccc32)N1 (stereo unspecified)
result: 109

query: Please list growth recorded for the molecule O=C(COc1ccc(/C=C2\CSc3ccccc3C2=O)cc1)c1ccc(Cl)cc1
result: 113

query: Please list growth recorded for the molecule NS(=O)(=O)c1cc(Br)c2c(c1)S(=O)(=O)NCN2
result: 108

query: Please list growth recorded for the molecule CCCCNNC(=O)c1ccc(Br)cc1
result: 50.9

query: Please list growth recorded for the molecule O=c1[nH]c(-c2ccccn2)nc2sc3c(c12)CCCCCC3
result: 48.8
